- assay-protocol: Phototoxicity in human HaCaT cells assessed as cell viability at 15.6 uM preincubated for 60 mins followed by 7.5 J/cm2 UVA irradiation and measured after 24 hrs by neutral red uptake assay relative to control
- Type: cell-based
- measurement-conditions: read-out: Activity
measurement-label: viability at 24 h, 15.6 µM (%)
Write the answer as a number in %, unit excluded.

Answered cases to consult:
c1nc(NCC2CCCO2)c2nc[nH]c2n1 (stereo not given)	106
c1csc(CNc2ncnc3c2ncn3C2CCCO2)c1 (stereo not given)	121
OCc1ccc(CNc2ncnc3c2ncn3C2CCCO2)o1 (stereo not given)	108
Clc1nc(NCC2CCCO2)c2ncn(C3CCCO3)c2n1 (stereo not given)	110

### Prompt So what does the record say about viability at 24 h, 15.6 µM for Clc1nc(NCc2ccco2)c2ncn(C3CCCO3)c2n1 (stereo not given) ?
### Response 120
